Tested on: AncSZ;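 note: 11-residue human phosphosite peptides and single-mutation variants displayed on the E. coli surface, counted by deep sequencing, each peptide's frequency after selection divided by its frequency in the unselected input library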;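 note: frequency after pTyr selection over input frequency; kinase dosed for 20-30% of maximal phosphorylation in three min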
TEST_SUMMARY: phosphorylation enrichment, bacterial display (enrichment ratio); higher = better substrate or ligand; peptides without Tyr show the background
Label Met when phosphorylation enrichment is at or above 1; anything below gets Not met.

Solved cases below.
[
  {
    "CHAIN_SEQUENCE": "RPGSGYTNIMQ [PKLR_Y564_R569Q]",
    "STUDY_TARGET": "AncSZ",
    "LABEL": "Not met"
  },
  {
    "CHAIN_SEQUENCE": "RQNNSYTCYTA [SLC20A2_Y386_R382Q]",
    "STUDY_TARGET": "AncSZ",
    "LABEL": "Met"
  },
  {
    "CHAIN_SEQUENCE": "AIGCEYSEINI [SIGLEC12_Y588_Y586C]",
    "STUDY_TARGET": "AncSZ",
    "LABEL": "Met"
  },
  {
    "CHAIN_SEQUENCE": "KNEVLYDEENH [ARFGEF1_Y314_G316E]",
    "STUDY_TARGET": "AncSZ",
    "LABEL": "Met"
  },
  {
    "CHAIN_SEQUENCE": "LDTFIYDAAVL [GRIN2A_Y730_A727T]",
    "STUDY_TARGET": "AncSZ",
    "LABEL": "Met"
  },
  {
    "CHAIN_SEQUENCE": "NKPTVCGVSPN [ABL1_Y226_Y226C]",
    "STUDY_TARGET": "AncSZ",
    "LABEL": "Not met"
  }
]

Pending sequence:
Query: Hello, I need to know if LQRVQCDLQKA [DSP_Y1512_Y1512C] has measured phosphorylation enrichment not below 1. Thanks!
Response: Met

----------
STUDY_TARGET: c-Src SH2;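 note: peptide library displayed on the E. coli surface as eCPX fusions, selected cells deep-sequenced, score is each peptide's frequency after selection divided by its frequency in the input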
TEST_SUMMARY: SH2 binding enrichment of the phosphorylated peptide, bacterial display (enrichment ratio); higher = better substrate or ligand; peptides without Tyr show the background
ENDPOINT_NAME: SH2 binding enrichment
Lab note: write the figure by itself, no unit.

# count of solved cases: 5
[
  {
    "CHAIN_SEQUENCE": "IGEGTSGVVYK [CDK2_Y15_Y15S]",
    "SH2 binding enrichment": 0.361
  },
  {
    "CHAIN_SEQUENCE": "AELVQYFMEHH [PTPN11_Y80_YF]",
    "SH2 binding enrichment": 0.473
  },
  {
    "CHAIN_SEQUENCE": "HLVLNYGVCVC [JAK2_Y613]",
    "SH2 binding enrichment": 0.52
  },
  {
    "CHAIN_SEQUENCE": "FDAHNYHPLPV [OAT_Y55_G51D_YF]",
    "SH2 binding enrichment": 0.841
  },
  {
    "CHAIN_SEQUENCE": "QRRNVYFFSFL [PTEN_Y176_Y174N_YF]",
    "SH2 binding enrichment": 0.92
  }
]

Query: For the sequence shown here, DWRQEYVLNEP [TGM1_Y267_S272P] , give the reported SH2 binding enrichment.
Response: 0.523

Query: Entry under review: TVSTGYTQPQP [SARG_Y259_R258G] . Reported SH2 binding enrichment?
Response: 1.53

Query: Which SH2 binding enrichment is listed for RNIQQHNSFVS [PRKAR1A_Y373_Y373H] ?
Response: 0.557

Query: Consider the sequence shown here: DLAHKYHGGGG [HBB_Y146_A141D] What is its recorded SH2 binding enrichment?
Response: 0.42

Query: Consider the sequence EYDRLYEEYTR [PIK3R1_Y467] and give its measured SH2 binding enrichment.
Response: 3.83

Query: I have this sequence here, FSKTQYNQVPS [CXADR_Y318_YF] , and I need its recorded SH2 binding enrichment.
Response: 0.56

Query: Request the reported SH2 binding enrichment associated with SSDPDYRAAVD [GLB1_Y154_L155R]
Response: 0.627

Query: Quick one: SH2 binding enrichment for QHVPDYRQNVF [PCDHGA1_Y890_YF] ?
Response: 0.508

Query: State the recorded SH2 binding enrichment for this entry: NIQKKYFRAIL [CHD7_Y1217_YF]
Response: 0.566

Query: Find the recorded SH2 binding enrichment belonging to YSKDIYKRVTG [PANK2_Y405_N404I] and report it.
Response: 0.487

Query: Using the record for LYEDHYLLGTS [ASS1_Y87_R86H] , report its SH2 binding enrichment.
Response: 0.571

Query: I have this sequence here, AFEQQYSPIPR [NOX1_Y373] , and I need its recorded SH2 binding enrichment.
Response: 0.508

Query: Using the record for HEKKVYSFCGT [RPS6KA3_Y226_A225V] , report its SH2 binding enrichment.
Response: 0.747

Query: Could you tell me which SH2 binding enrichment is on file for PQDVTYARLHS [LILRB4_Y412_Q414R] ?
Response: 1.12

Query: Name the recorded SH2 binding enrichment for FSEVRYMKEPF [HIPK4_Y170_V171M_YF] .
Response: 0.547

Query: Look at this sequence and give its reported SH2 binding enrichment. LLEGKYEWQEV [CDKN1B_Y74_P69L]
Response: 3.24

Query: Look up SH2 binding enrichment: EGWQVYRLGAR [MISP_Y95]
Response: 0.515
